System: HCT116 cells
Experiment: Anti-proliferation assay on cells (Cell-Titer Glo, 10 days)
Type: cell-based
Conditions: ratio of GI50 values
Recorded measurements of Selectivity multiple of HCT116^MTAP WT GI50/ HCT116^MTAP Deletion GI50, one per entry
A bare number is all that is needed in reply.

Examples from the recorded data:
Please give the measured Selectivity multiple of HCT116^MTAP WT GI50/ HCT116^MTAP Deletion GI50 for this compound: CN(C(=O)C(=O)Nc1cnc(N)c2c1cnn2C)C1COc2cc(C(F)(F)F)ccc21 (stereo not shown) [Example 89] 160

Please give the measured Selectivity multiple of HCT116^MTAP WT GI50/ HCT116^MTAP Deletion GI50 for this compound: CC1OCC(N(C)C(=O)C(=O)Nc2cnc(N)c3c2cnn3C)c2ccc(C(F)(F)F)cc21 (single isomer, unassigned) [Example 187-P2] 59

Please give the measured Selectivity multiple of HCT116^MTAP WT GI50/ HCT116^MTAP Deletion GI50 for this compound: CN(C(=O)C(=O)Nc1cnc(N)c2c1cnn2C)C1COCc2cc(-c3cnn(C)c3)ccc21 (stereo not shown) [Example 124-P1] 215

Please give the measured Selectivity multiple of HCT116^MTAP WT GI50/ HCT116^MTAP Deletion GI50 for this compound: CCC(C)N(Cc1ccc(-c2ccn(C)n2)cn1)C(=O)C(=O)Nc1cnc(N)c2c1cnn2C (stereo not shown) 161

Please give the measured Selectivity multiple of HCT116^MTAP WT GI50/ HCT116^MTAP Deletion GI50 for this compound: CN(C(=O)C(=O)Nc1cnc(N)c2c1cnn2C)C1COCc2cc(-c3cccnc3)ccc21 (stereo not shown) 224

Please give the measured Selectivity multiple of HCT116^MTAP WT GI50/ HCT116^MTAP Deletion GI50 for this compound: CN(C(=O)C(=O)Nc1cnc(N)c2c1cnn2C)C1COCc2cc(-c3ccc(C(F)(F)F)nc3)ccc21 (stereo not shown) 240

---
Please give the measured Selectivity multiple of HCT116^MTAP WT GI50/ HCT116^MTAP Deletion GI50 for this compound: CN(C(=O)C(=O)Nc1cnc(N)c2c1cnn2C)C1COCc2cc(-c3cnn(C)c3)ccc21 (stereo not shown) [Example 99] 285
